These entries and their values trace back to paper PMC6643034.

Exercise: state measured pKd for each of the binders provided.
measured_target: CXCL5 (human)
protocol_details: BLI
Answers are plain numbers, as −log10 of the molar value.

Some binders with known pKd results, for comparison:
* P1104 (natural protein, also: glycosylated) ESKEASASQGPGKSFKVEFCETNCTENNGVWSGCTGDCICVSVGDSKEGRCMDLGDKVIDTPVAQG | 7.61
* P1090_IXORI (natural protein) GSKELSGPESSENSIEAAFCDTNCTEGTDGVWSGCSAGCFCVHVGNSTVGRCMTFNGVD | 7.37
* P942 (natural protein, also: glycosylated) DGGNQLSGPQSSANSNEAVFCDTNCTQGTDEAWSGCRGDCFCVYVGNSTEGRCMMLSGDFDYSTPGAED | 7.68
* P1100_IXORI (natural protein) GSKGSSASQSSDNSVVAKFCDTNCTINEGGKWTECKGGCFCVHVGNETVGRCMKLDGDYDYPSPKPEE | 7.29

Incoming: What does the record list as pKd for Evasin 3 (EVA3) (natural protein, also: glycosylated) DGGLVSTIESRTSGDGADNFDVVSCNKNCTSGQNECPEGCFCGLLGQNKKGHCYKIIGNLSGEPPVVRR ?
Outgoing: 7.60
